Target: p56lck GST-SH2 (lck SH2 domain) (Homo sapiens)
Construct: GST (N)
Sequence (P06239 127-224 limits assumed): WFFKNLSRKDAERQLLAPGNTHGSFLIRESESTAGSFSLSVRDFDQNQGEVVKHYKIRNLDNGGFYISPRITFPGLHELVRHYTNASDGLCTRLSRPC
Assay: Receptor-ligand equilibrium binding constants by surface plasmon resonance (biosensor), lck SH2 domain
Conditions: Table 1, compounds of formula (II)
Consider the following compounds and their measured Kd readings.
Just the number please, in µM, no unit attached.

- compound: "COc1ccc(Cn2ccc(C)c(NC(=O)[C@H](Cc3ccc(NC(=O)C(=O)O)cc3)NC(=O)Cc3ccc(NC(C)C)cc3)c2=O)cc1"
  target system: "p56lck GST-SH2 (lck SH2 domain) (Homo sapiens)"
  quantity unit: "µM"
  recorded value: 2.1
- compound: "COc1ccc(Cn2ccc(C)c(NC(=O)C(Cc3ccc(C(C)(C)C(=O)O)cc3)NC(=O)Cc3ccc(Oc4ccccc4)cc3)c2=O)cc1 (stereo not drawn)"
  target system: "p56lck GST-SH2 (lck SH2 domain) (Homo sapiens)"
  quantity unit: "µM"
  recorded value: 0.66
- compound: "Cc1ccn(CC2CCCCC2)c(=O)c1NC(=O)C(Cc1ccc(C(C)(C)C(=O)O)cc1)NC(=O)Cc1ccc2ccccc2c1 (stereo not drawn)"
  target system: "p56lck GST-SH2 (lck SH2 domain) (Homo sapiens)"
  quantity unit: "µM"
  recorded value: 1.1
- compound: "COc1ccc(Cn2cc(Br)c(C)c(NC(=O)C(Cc3ccc(C(C)(C)C(=O)O)cc3)NC(=O)C(C)(C)c3ccc(Br)cc3)c2=O)cc1 (stereo not drawn)"
  target system: "p56lck GST-SH2 (lck SH2 domain) (Homo sapiens)"
  quantity unit: "µM"
  recorded value: 5.3
- compound: "COc1ccc(Cn2ccc(C)c(NC(=O)[C@H](Cc3ccc(CC(=O)O)cc3)NC(=O)COc3cccc4cnccc34)c2=O)cc1"
  target system: "p56lck GST-SH2 (lck SH2 domain) (Homo sapiens)"
  quantity unit: "µM"
  recorded value: 400

Now, please, on to the next compound.
*Q* Reported Kd for Cc1ccn(CCc2ccccc2)c(=O)c1NC(=O)C(Cc1ccc(C(C)(C)C(=O)O)cc1)NC(=O)Cc1cccc2ccccc12 (stereo not drawn) : what is it?
*A* 9.1
